ASSAY_EXPLANATION: PK parameters in mice
Assay type: in vivo, male Swiss (CD-1) mice
TEST_SETTINGS: male, Swiss (CD-1), plasma; mouse, iv 0.5 mg/kg; read-out: T1/2 iv (converted)
OBSERVED_PROPERTY: half-life (min)
Return type: number; implicit unit min.

Task item: Which value of half-life has been reported for COc1ccc(C(=O)Nc2sc3c(c2C(=O)O)CCC(C)(C)C3)cc1OC [dEF2788] in the records?
Reply: 48

* * *

ASSAY_EXPLANATION: in vivo
TEST_SETTINGS: male, Sprague Dawley, rat, 50 mg/kg, 50 mg/kg per os, 2 h, read-out: Lung:Plasma Ratio
OBSERVED_PROPERTY: Kp

Task item: Which value of Kp has been reported for O=C(Nc1scc(C2CCc3ccccc3C2)c1C(=O)O)c1ccccc1 (stereo not shown) in the records?
Reply: 0.11
